molecular target: recombinant sEH (soluble epoxide hydrolase, EPHX2) (Homo sapiens (Human), UniProt P34913); test: biochemical fluorometric sEH inhibition assay with Phome substrate; details: recombinant sEH purified from Sf9 insect cells, 2 nM sEH, 5 μM Phome, 60 minutes at 30° C.
Sequence (P34913 whole entry): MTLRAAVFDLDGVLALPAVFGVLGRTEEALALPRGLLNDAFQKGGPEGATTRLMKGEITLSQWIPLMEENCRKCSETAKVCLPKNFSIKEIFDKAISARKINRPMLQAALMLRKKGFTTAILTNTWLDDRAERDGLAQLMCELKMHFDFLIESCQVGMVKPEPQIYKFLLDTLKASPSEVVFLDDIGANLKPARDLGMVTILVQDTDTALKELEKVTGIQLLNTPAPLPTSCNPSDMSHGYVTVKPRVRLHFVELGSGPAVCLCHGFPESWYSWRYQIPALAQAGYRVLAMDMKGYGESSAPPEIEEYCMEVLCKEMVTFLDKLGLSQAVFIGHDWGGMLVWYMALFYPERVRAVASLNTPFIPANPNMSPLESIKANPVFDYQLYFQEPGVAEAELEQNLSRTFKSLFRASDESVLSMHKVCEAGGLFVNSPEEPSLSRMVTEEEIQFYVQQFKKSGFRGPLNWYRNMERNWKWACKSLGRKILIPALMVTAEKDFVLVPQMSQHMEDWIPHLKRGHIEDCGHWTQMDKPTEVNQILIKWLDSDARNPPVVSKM
So I've got a bunch of compounds here, and I need their IC50 values.
Give your result as the value with the unit written after it.

Ask: Look up IC50 for this compound: O=C(NCc1ccc(Cl)cc1Cl)c1ccc(CN2CCN(c3ccc(O)nn3)CC2)s1 [Example 50]
Reply: 2.67 nM

Ask: So what does the record say about IC50 for O=C(NCc1ccccc1C(F)(F)F)c1ccc(CN2CCN(C(=O)c3ccccc3F)CC2)s1 [Example 119] ?
Reply: 1.68 nM

Ask: Which value of IC50 has been reported for CC(O)C(=O)N1CCN(Cc2ccc(C(=O)NCc3ccccc3OC(F)(F)F)s2)CC1 (centres unmarked) [Example 155] in the records?
Reply: 1.99 nM

Ask: Entry CC1(C)SCN[C@H]1C(=O)N1CCN(Cc2ccc(C(=O)NCc3ccccc3OC(F)(F)F)s2)CC1 [Example 110] has what IC50?
Reply: 2.16 nM

Ask: Item under review: O=C(NCc1ccccc1OC(F)(F)F)c1ccc(CN2CCN(CCO)CC2)s1 [Example 125] . Reported IC50?
Reply: 1.68 nM

Ask: // IC50 lookup, key: O=C(NCc1ccc(Cl)cc1Cl)c1ccc(CN2CCN(C(=O)c3nccc4ccccc34)CC2)s1 [Example 65]
Reply: 1.19 nM

Ask: Requested field: IC50. Item: NC1(C(=O)N2CCN(Cc3ccc(C(=O)NCc4ccccc4OC(F)(F)F)s3)CC2)CCCCC1 [Example 157]
Reply: 2.08 nM

Ask: Which IC50 reading was recorded for the compound O=C(NCc1ccccc1OC(F)(F)F)c1ccc(CN2CCN(C(=O)CCO)CC2)s1 [Example 106] ?
Reply: 2.18 nM

Ask: Would you kindly share the measured IC50 for Cc1c(C(=O)N2CCN(Cc3ccc(C(=O)NCCC(C)C)s3)CC2)oc2ccc(Br)cc12 [Example 12] ?
Reply: 25.4 nM

Ask: Bench note: what IC50 did CN[C@H](C(=O)N1CCN(Cc2ccc(C(=O)NCc3ccccc3OC(F)(F)F)s2)CC1)[C@@H](C)O [Example 41] show?
Reply: 2.75 nM

Ask: What value of IC50 has been recorded for this entry: O=C(NCc1ccccc1OC(F)(F)F)c1ccc(CN2CCN(C(=O)c3cccc(O)n3)CC2)s1 [Example 132]
Reply: 2.09 nM

###

target: recombinant sEH (soluble epoxide hydrolase, EPHX2) (Homo sapiens (Human)); assay: biochemical fluorometric sEH inhibition assay with Phome substrate; settings: recombinant sEH purified from Sf9 insect cells, 2 nM sEH, 5 μM Phome, 60 minutes at 30° C.
Counter-ions that a name gives are not always drawn.
Kindly supply the reported pIC50 values for the records listed here.
Notebook: values listed as pIC50 are -log10 of the concentration (mol/L).

Ask: I'm curious: which pIC50 was measured for COc1cc(CNC(=O)c2ccc(CN3CCN(C(=O)c4c(C)n[nH]c4C)CC3)s2)ccn1 [Example 139, trifluoroacetate] tested on recombinant sEH (soluble epoxide hydrolase, EPHX2) (Homo sapiens (Human))?
Reply: 8.55

Ask: Given the entry CC(O)C(=O)N1CCN(Cc2ccc(C(=O)NCc3ccc(C#N)cc3Cl)s2)CC1 (stereo not shown) [Example 61] , what pIC50 was observed with recombinant sEH (soluble epoxide hydrolase, EPHX2) (Homo sapiens (Human))?
Reply: 8.93

Ask: pIC50 of CCc1oncc1C(=O)N1CCN(Cc2ccc(C(=O)NCc3ccccc3C(F)(F)F)s2)CC1 [Example 117] on recombinant sEH (soluble epoxide hydrolase, EPHX2) (Homo sapiens (Human))?
Reply: 8.79

Ask: pIC50 of O=C(NCc1ccc(Cl)cc1Cl)c1cnc(CN2CCN(C(=O)C3CCOC3)CC2)s1 (stereo not shown) [Example 183] on recombinant sEH (soluble epoxide hydrolase, EPHX2) (Homo sapiens (Human))?
Reply: 7.73

Ask: Provide the documented pIC50 with recombinant sEH (soluble epoxide hydrolase, EPHX2) (Homo sapiens (Human)) as the system for CNC(=O)c1cccnc1N1CCN(Cc2ccc(C(=O)NCc3ccccc3OC(F)(F)F)s2)CC1 [Example 135]
Reply: 8.67

Ask: Identify the measured pIC50 of CCOc1ccccc1C(=O)N1CCN(Cc2ccc(C(=O)NCc3ccccc3C(F)(F)F)s2)CC1 [Example 53] for recombinant sEH (soluble epoxide hydrolase, EPHX2) (Homo sapiens (Human)).
Reply: 8.99
